- Target Or System: T1, cynomolgus sclerostin (cynomolgus monkey)
- T1 chain: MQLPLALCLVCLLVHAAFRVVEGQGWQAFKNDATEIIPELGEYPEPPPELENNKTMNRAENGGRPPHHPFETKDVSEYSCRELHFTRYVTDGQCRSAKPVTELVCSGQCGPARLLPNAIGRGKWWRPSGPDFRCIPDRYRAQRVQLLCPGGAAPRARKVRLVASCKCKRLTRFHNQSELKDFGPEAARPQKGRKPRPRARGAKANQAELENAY
- Experimental Protocol: SPR, pH 7.4
Quantity: koff (s⁻¹)
Kindly provide the numeric value in s⁻¹ only, without the unit symbol.

koff recorded for this binder, bsH656/abL152 (antibody, V domains shown) VH: QVQLVQSGAEVKKPGASVKVSCKVSGYTLTHTFMHWVRQAPGKGLEWMGWSDPEIGDTEYASKFQGRVTMTEDTSTDTAYMELSSLRSEDTAVYYCATGDTTYKFDYWGQGTLVTVSS VL: DIQMTQSPSSLSASVGDRVTITCRASEGIHDALAWYQQKPGKAPKLLIYWASTLESGVPSRFSGSGSGTDFTLTISSLQPEDFATYYCQQGDTLPYTFGGGTKVEIK , is 0.0108

More entries:
koff recorded for this binder, bsH638/abL152 (antibody, V domains shown) VH: QVQLVQSGAEVKKPGASVKVSCKVSGYTLTHTFMHWVRQAPGKGLEWMGWSDPEIGDHEYASKFQGRVTMTEDTSTDTAYMELSSLRSEDTAVYYCATGDTTYKFDYWGQGTLVTVSS VL: DIQMTQSPSSLSASVGDRVTITCRASEGIHDALAWYQQKPGKAPKLLIYWASTLESGVPSRFSGSGSGTDFTLTISSLQPEDFATYYCQQGDTLPYTFGGGTKVEIK , is 0.0107

koff recorded for this binder, amH852/abL152 (antibody, V domains shown) VH: EVQLVQSGAEVKKPGASVKVSCKASGYTFTDYNMHWVRQAPGKGLEWMGEIMPHSGRYGLKQKFKGRVTMTTDTSTSTAYMELRSLRSDDTAVYYCARLEYSEIYDDWYFDVWGQGTTVTVSS VL: DIQMTQSPSSLSASVGDRVTITCRASEGIHDALAWYQQKPGKAPKLLIYWASTLESGVPSRFSGSGSGTDFTLTISSLQPEDFATYYCQQGDTLPYTFGGGTKVEIK , is 0.0019

koff recorded for this binder, amH848/abL152 (antibody, V domains shown) VH: EVQLVQSGAEVKKPGASVKVSCKASGYTFTSYNMHWVRQAPGKGLEWMGEIMPHSGRYGLKQKFKGRVTMTRDTSISTAYMELSRLRSDDTAVYYCARLEYSEIYDDWYFDVWGQGTTVTVSS VL: DIQMTQSPSSLSASVGDRVTITCRASEGIHDALAWYQQKPGKAPKLLIYWASTLESGVPSRFSGSGSGTDFTLTISSLQPEDFATYYCQQGDTLPYTFGGGTKVEIK , is 0.00854
